Every entry's value here was drawn from patent US9090632B2.

Target: human mGluR5 (Homo sapiens, UniProt P41594)
Sequence (P41594 21-1180 isoform P41594-2 limits assumed): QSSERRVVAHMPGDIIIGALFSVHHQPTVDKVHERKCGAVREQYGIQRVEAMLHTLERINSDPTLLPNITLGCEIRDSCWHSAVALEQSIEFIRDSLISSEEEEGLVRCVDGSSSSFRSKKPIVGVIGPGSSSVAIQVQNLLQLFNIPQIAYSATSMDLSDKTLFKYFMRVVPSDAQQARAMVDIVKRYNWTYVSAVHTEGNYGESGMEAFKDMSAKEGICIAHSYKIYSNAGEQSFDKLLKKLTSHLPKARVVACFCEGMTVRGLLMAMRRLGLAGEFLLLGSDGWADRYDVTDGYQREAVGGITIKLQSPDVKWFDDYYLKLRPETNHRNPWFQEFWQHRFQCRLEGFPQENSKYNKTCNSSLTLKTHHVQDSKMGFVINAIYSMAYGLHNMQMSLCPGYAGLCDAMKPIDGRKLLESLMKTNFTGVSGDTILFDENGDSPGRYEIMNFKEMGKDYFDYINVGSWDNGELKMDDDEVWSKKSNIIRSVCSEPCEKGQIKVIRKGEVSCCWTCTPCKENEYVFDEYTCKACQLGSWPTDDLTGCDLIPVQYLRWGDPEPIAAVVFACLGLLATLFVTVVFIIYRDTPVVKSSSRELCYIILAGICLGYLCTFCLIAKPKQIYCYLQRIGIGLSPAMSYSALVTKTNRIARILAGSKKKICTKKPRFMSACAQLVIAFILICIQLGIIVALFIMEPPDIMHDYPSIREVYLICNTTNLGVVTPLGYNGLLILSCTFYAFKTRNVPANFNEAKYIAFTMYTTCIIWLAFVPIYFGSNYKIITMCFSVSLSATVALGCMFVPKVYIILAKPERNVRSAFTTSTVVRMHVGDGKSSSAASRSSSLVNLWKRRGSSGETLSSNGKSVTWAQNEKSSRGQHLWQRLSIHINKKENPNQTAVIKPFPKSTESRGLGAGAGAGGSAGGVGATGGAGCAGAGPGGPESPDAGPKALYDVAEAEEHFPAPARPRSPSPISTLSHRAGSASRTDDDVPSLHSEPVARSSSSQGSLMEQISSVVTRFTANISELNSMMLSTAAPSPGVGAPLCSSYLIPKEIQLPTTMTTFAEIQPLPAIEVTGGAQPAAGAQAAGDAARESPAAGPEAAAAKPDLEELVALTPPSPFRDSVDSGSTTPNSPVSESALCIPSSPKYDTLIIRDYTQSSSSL
Assay: Cell-based functional Ca2+ mobilization assay, potentiation of glutamate EC20 response (H10H cell-line)
Details: H10H cell-line expressing recombinant human mGluR5; potentiation in presence of glutamate EC20
Procedure: Human embryonic kidney (HEK) cells transfected with rat mGluR5 were plated in clear bottom assay plates for assay in a Functional Drug Screening System (FDSS). In the alternative assay, HEK cells transfected with human mGluR5 were plated for assay in the FDSS. […] After establishment of a fluorescence baseline for about three seconds, the compounds of the present invention were added to the cells, and the response in cells was measured. […]
experimental-endpoint: pEC50

// known answers, use as guide
molecule="O=C(c1cc[nH]n1)N1CCc2nc(COc3ccccc3)oc2C1 [Example B115]" result=<5
molecule="O=C(c1ccc(F)cc1)N1Cc2nc(COc3ccccc3)oc2C1 [Example B21]" result=6.05
molecule="Cc1ccoc1C(=O)N1CCc2nc(COc3ccccc3)oc2C1 [Example B121]" result=6.72
molecule="O=C(c1ccc(F)cc1)N1CCc2nc(COc3ccc(F)cc3)oc2C1 [Example B10]" result=6.18
molecule="O=C(c1ccc(C(F)(F)F)o1)N1CCc2nc(COc3ccccc3)oc2C1 [Example B122]" result=6.67
molecule="O=C(c1cccnc1)N1CCc2nc(COc3ccccc3)oc2C1 [Example B18]" result=5.33
molecule="O=C(c1ccc(F)cc1)N1CCc2nc(COc3cncc(F)c3)oc2C1 [Example B48]" result=5.49
molecule="O=C(c1n[nH]c2cccnc12)N1CCc2nc(COc3ccccc3)oc2C1 [Example B144]" result=>5
molecule="O=C(c1c[nH]c2ccccc12)N1CCc2nc(COc3ccccc3)oc2C1 [Example B117]" result=6.60
molecule="O=C(c1nccs1)N1CCc2nc(COc3ccccc3)oc2C1 [Example B159]" result=<4.52

Enquiry: Which pEC50 is reported for this molecule? O=C(c1ccccn1)N1CCc2nc(COc3ccccc3)oc2C1 [Example B23]
Return: <5

====

Target: human mGluR5 (Homo sapiens)
Test: Cell-based functional Ca2+ mobilization assay, potentiation of glutamate EC20 response (H10H cell-line)
Conditions: H10H cell-line expressing recombinant human mGluR5; in presence of glutamate EC20; normalized to maximal glutamate response
experimental-endpoint: Emax (%)
Your answer is read as %, so omit the unit and give the number.

compound="O=C(Cc1ccc(F)cc1)N1CCc2nc(COc3ccccc3)oc2C1 [Example B51]" tgt="human mGluR5 (Homo sapiens)" experimental_endpoint="Emax (%)" unit_symbol=% recorded_number=61
compound="O=C(c1ccc(C(F)(F)F)o1)N1CCc2nc(COc3ccccc3)oc2C1 [Example B122]" tgt="human mGluR5 (Homo sapiens)" experimental_endpoint="Emax (%)" unit_symbol=% recorded_number=68

Enquiry: Any idea what Emax (%) came out for Cc1ccc(C(=O)N2CCc3nc(COc4ccccc4)oc3C2)s1 [Example B110] on human mGluR5 (Homo sapiens)?
Return: 57

Enquiry: Any idea what Emax (%) came out for O=C(c1ccc(F)cc1)N1CCc2nc(COc3ccc(C(F)(F)F)cc3)oc2C1 [Example B128] on human mGluR5 (Homo sapiens)?
Return: 25

Enquiry: Any idea what Emax (%) came out for Cc1ccoc1C(=O)N1CCc2nc(COc3ccccc3)oc2C1 [Example B121] on human mGluR5 (Homo sapiens)?
Return: 51

====

Target: UniProt P41594
Experiment: Cell-based functional Ca2+ mobilization assay, potentiation of glutamate EC20 response (H10H cell-line)
Conditions: H10H cell-line expressing recombinant human mGluR5; in presence of glutamate EC20; normalized to maximal glutamate response
Kindly apply the following: 1.0 if Emax (%) is less than 70%, 0.0 in every other case.

Examples with answers:
compound=O=C(c1ccc(F)cc1)N1CCCc2nc(COc3ccccc3)sc2C1 tgt="UniProt P41594" discrete_label=0.0
compound="O=C1CCC(C(=O)N2CCc3nc(COc4ccccc4)oc3C2)N1 (centres unmarked)" tgt="UniProt P41594" discrete_label=1.0
compound=O=C(c1cccc(F)c1F)N1CCc2nc(COc3ccccc3)oc2C1 tgt="UniProt P41594" discrete_label=0.0
compound=O=C(c1cnc2ccccc2n1)N1CCc2nc(COc3ccccc3)oc2C1 tgt="UniProt P41594" discrete_label=1.0

# next compound below
Enquiry: Emax (%) under 70%? Item: `O=C(c1ccc(F)c(F)c1)N1CCc2nc(COc3ccccc3)oc2C1`
Return: 0.0

====

Below, each entry is listed with its recorded pEC50.
Target: human mGluR5 (Homo sapiens, UniProt P41594)
Assay: Cell-based functional Ca2+ mobilization assay, potentiation of glutamate EC20 response (H10H cell-line)
Details: H10H cell-line expressing recombinant human mGluR5; potentiation in presence of glutamate EC20
# output: bare number, no unit

// known answers, use as guide
structure_smiles=O=C(c1ccc(F)cc1)N1CCc2nc(COc3cccc(Cl)c3)oc2C1 experimental_endpoint=pEC50 recorded_number=5.85
structure_smiles=O=C(c1ccc(F)cc1)N1CCCc2nc(COc3ccccc3)sc2C1 experimental_endpoint=pEC50 recorded_number=6.35

Would you kindly look at the next entry?
Enquiry: Which pEC50 is reported for this compound? `O=C(c1cccc(F)c1F)N1CCc2nc(COc3ccccc3)oc2C1`
Return: 6.43

====

Target: human mGluR5 (Homo sapiens, UniProt P41594)
Assay: Cell-based functional Ca2+ mobilization assay, potentiation of glutamate EC20 response (H10H cell-line)
Conditions: H10H cell-line expressing recombinant human mGluR5; potentiation in presence of glutamate EC20
Procedure: Human embryonic kidney (HEK) cells transfected with rat mGluR5 were plated in clear bottom assay plates for assay in a Functional Drug Screening System (FDSS). In the alternative assay, HEK cells transfected with human mGluR5 were plated for assay in the FDSS. […] After establishment of a fluorescence baseline for about three seconds, the compounds of the present invention were added to the cells, and the response in cells was measured. […]
pEC50: −log10 of the molar value.
pEC50 vs 6: at or above is class 1, below is class 0.

structure_smiles=O=C(c1ccc(F)cc1)N1CCc2nc(COc3ccc(O)cc3)oc2C1 discrete_label="class 0"
structure_smiles=O=C(c1ccc(Br)o1)N1CCc2nc(COc3ccccc3)oc2C1 discrete_label="class 1"
structure_smiles=Cc1nc(C(=O)N2CCc3nc(COc4ccccc4)oc3C2)no1 discrete_label="class 0"
structure_smiles=O=C(c1cncc(F)c1)N1CCc2nc(COc3ccccc3)oc2C1 discrete_label="class 0"

Enquiry: Decide: is the reported value of pEC50 for `O=C(c1ncc(F)cc1F)N1CCc2nc(COc3cccc(F)c3)oc2C1` equal to or greater than 6?
Return: class 0

Enquiry: Decide: is the reported value of pEC50 for `Cn1c(C(=O)N2CCc3nc(COc4ccccc4)oc3C2)cc2ccccc21` equal to or greater than 6?
Return: class 1

Enquiry: Decide: is the reported value of pEC50 for `O=C(c1ccc(F)cc1)N1CCc2oc(COc3ccccc3)nc2C1` equal to or greater than 6?
Return: class 0

Enquiry: Decide: is the reported value of pEC50 for `O=C(c1ccc(F)cc1)N1CCc2nc(COc3cnccn3)oc2C1` equal to or greater than 6?
Return: class 0

Enquiry: Decide: is the reported value of pEC50 for `Cc1ccccc1OCc1nc2c(o1)CN(C(=O)c1ccc(F)cc1)CC2` equal to or greater than 6?
Return: class 0

Enquiry: Decide: is the reported value of pEC50 for `O=C(c1ccc(F)cc1)N1CCc2nc(CCc3ccccc3)oc2C1` equal to or greater than 6?
Return: class 0

Enquiry: Decide: is the reported value of pEC50 for `O=C(c1ccc(F)cc1)N1CCc2nc(COc3ccccn3)oc2C1` equal to or greater than 6?
Return: class 0

Enquiry: Decide: is the reported value of pEC50 for `O=C(c1ccccc1)N1CCc2nc(COc3cccc(F)c3)oc2C1` equal to or greater than 6?
Return: class 1

Enquiry: Decide: is the reported value of pEC50 for `O=C(c1ccc(F)cc1)N1CCc2nc(/C=C/c3ccccc3)oc2C1` equal to or greater than 6?
Return: class 0

Enquiry: Decide: is the reported value of pEC50 for `O=C(c1c(F)cccc1F)N1CCc2nc(COc3ccccc3)oc2C1` equal to or greater than 6?
Return: class 1

Enquiry: Decide: is the reported value of pEC50 for `O=C(c1ncc[nH]1)N1CCc2nc(COc3ccccc3)oc2C1` equal to or greater than 6?
Return: class 0

Enquiry: Decide: is the reported value of pEC50 for `O=C(c1ccc2ccccc2n1)N1CCc2nc(COc3ccccc3)oc2C1` equal to or greater than 6?
Return: class 0

Enquiry: Decide: is the reported value of pEC50 for `O=C(c1ncccc1Cl)N1CCc2nc(COc3ccccc3)oc2C1` equal to or greater than 6?
Return: class 0

====

Biological target: human mGluR5 (Homo sapiens, UniProt P41594)
Test: Cell-based functional Ca2+ mobilization assay, potentiation of glutamate EC20 response (H10H cell-line)
Details: H10H cell-line expressing recombinant human mGluR5; potentiation in presence of glutamate EC20
experimental-endpoint: EC50

// known answers, use as guide
structure_smiles=O=C(c1ccc(F)cc1)N1CCc2nc(COc3cccc(C(F)(F)F)c3)oc2C1 result="> 10 µM"
structure_smiles=Cc1ccc(OCc2nc3c(o2)CN(C(=O)c2ccc(F)cc2)CC3)cc1 result="> 10 µM"
structure_smiles=O=C(c1c[nH]cn1)N1CCc2nc(COc3ccccc3)oc2C1 result="> 30.2 µM"
structure_smiles=Cc1ncc(C(=O)N2CCc3nc(COc4ccccc4)oc3C2)cn1 result="> 10 µM"
structure_smiles=Cn1cncc1C(=O)N1CCc2nc(COc3ccccc3)oc2C1 result="> 30.2 µM"
structure_smiles=CC(=O)N1CCc2nc(COc3ccccc3)oc2C1 result="> 10 µM"

Enquiry: Which EC50 is reported for this molecule? `O=C(c1ccc(F)cc1)N1CCc2nc(COc3ccccc3C(F)(F)F)oc2C1`
Return: > 30.2 µM
